A short record of IC50 observed with cGMP-inhibited 3',5'-cyclic phosphodiesterase 3A (Homo sapiens, UniProt Q14432) follows.
Sequence (Q14432 whole entry): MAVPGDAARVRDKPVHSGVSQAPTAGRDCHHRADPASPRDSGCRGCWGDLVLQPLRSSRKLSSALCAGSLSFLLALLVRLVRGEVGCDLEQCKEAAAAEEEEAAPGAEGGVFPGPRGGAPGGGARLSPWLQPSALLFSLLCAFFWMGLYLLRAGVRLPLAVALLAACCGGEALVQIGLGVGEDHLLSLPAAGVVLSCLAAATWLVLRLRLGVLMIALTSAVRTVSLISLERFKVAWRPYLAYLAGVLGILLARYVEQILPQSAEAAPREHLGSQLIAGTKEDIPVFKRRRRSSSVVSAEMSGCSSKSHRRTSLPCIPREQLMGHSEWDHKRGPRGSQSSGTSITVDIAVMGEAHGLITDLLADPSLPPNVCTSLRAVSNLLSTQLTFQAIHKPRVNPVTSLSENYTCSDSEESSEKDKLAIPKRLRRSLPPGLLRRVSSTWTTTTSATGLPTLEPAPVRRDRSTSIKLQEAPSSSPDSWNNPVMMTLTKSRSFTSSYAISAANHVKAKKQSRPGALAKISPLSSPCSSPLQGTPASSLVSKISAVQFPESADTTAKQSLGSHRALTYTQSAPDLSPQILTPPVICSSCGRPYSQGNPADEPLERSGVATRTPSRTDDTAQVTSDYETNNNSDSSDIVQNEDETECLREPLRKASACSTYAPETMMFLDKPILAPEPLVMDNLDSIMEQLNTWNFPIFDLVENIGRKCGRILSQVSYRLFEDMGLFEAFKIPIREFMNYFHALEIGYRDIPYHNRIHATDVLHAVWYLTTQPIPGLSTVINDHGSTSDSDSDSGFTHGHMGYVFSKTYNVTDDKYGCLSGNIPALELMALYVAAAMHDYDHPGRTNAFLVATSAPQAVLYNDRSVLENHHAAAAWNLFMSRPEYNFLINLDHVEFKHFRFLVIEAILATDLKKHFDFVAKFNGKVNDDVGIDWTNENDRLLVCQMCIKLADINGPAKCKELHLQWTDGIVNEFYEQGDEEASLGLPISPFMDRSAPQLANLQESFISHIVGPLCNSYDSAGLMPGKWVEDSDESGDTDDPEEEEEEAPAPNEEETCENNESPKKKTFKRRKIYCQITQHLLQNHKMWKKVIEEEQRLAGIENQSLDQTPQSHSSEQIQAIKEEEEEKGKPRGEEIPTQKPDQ
Dear colleague, please return just the value in µM, with no unit written.

For this compound ( `CNC(=O)[C@@H](NC(=O)c1cc(NC(=O)c2ccc3ncccc3n2)cc(B(O)O)c1)C1CCCCC1` ), measured IC50 is 0.126

Notebook: `CNC(=O)[C@@H](NC(=O)c1cc(NC(=O)c2ccc3cc(OC)ccc3c2)cc(B(O)O)c1)C1CCCCC1` , IC50 read as 39.8

Per the records, this compound ( `CNC(=O)[C@@H](NC(=O)c1cc(NC(=O)c2cc3ccccc3cn2)cc(B(O)O)c1)C1CCCCC1` ) has IC50 equal to 3.16

The compound identified as COc1ccc2c(OC)cc(C(=O)Nc3cc(B(O)O)cc(C(=O)NCC(C)OC)c3)nc2c1 (stereo not drawn) registered its IC50 at 25.1

What the record says about `CNC(=O)[C@@H](NC(=O)c1cc(NC(=O)c2cc(OC)c3ccccc3n2)cc(B(O)O)c1)C1CCCCC1` : IC50 is 0.251

get_value(item= `COc1ccc2c(OC)cc(C(=O)Nc3cc(B(O)O)cc(C(=O)N[C@H](C(N)=O)C(C)C)c3)nc2c1` , readout=IC50) returns 5.01
